# System: OVCAR-4 ovarian
# test-details: NCI tumour cell line growth inhibition, 48 h
reported-property: TGI

Cn1ccc(C(=O)NCCCCCNC(=O)c2ccn(C)c(=O)c2O)c(O)c1=O = > 100 µM
COC(=O)c1ccccc1CC(Cc1ccccc1)C(=O)OC (stereo not given) = > 100 µM
COc1ccc2[nH]cc(-c3nc(-c4c[nH]c5ccncc45)cs3)c2c1 = 8.85 µM
NC(=O)c1c2c(cc3c(=O)c4ccccc4[nH]c13)CCCC2 = > 100 µM
CCOC(=O)C(=O)Nc1ccc(Cl)c(C(F)(F)F)c1 = > 100 µM

State the recorded TGI for every item in the following list.
1. CC(C)C(C/C=C1\CC(CO)(COC(=O)CC(C(C)C)C(C)C)OC1=O)C(C)C (stereo not given)
2. COC(=O)[C@@H]1CCCN1C(=O)[C@H]1CCCN1C(=O)[C@@H](Cc1c[nH]c2ccccc12)NC(=S)Nc1cc(C(F)(F)F)cc(C(F)(F)F)c1
3. Nc1ccc(-n2c(=O)oc3ccc(Cl)cc3c2=O)c(Cl)c1
4. CN(C)CCNC(=O)c1nc([N+](=O)[O-])cn1C

33 µM
7.55 µM
> 94.8 µM
> 100 µM
